Attribution: PubChem BioAssay AID1159580

test.name: chemical genetic growth profiling, strain panel (AID 1159580);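 further: tested at 20 µM; growth read once vehicle control cultures reached saturation at 30 °C; lower values mean less growth of the strain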
test.context: S. cerevisiae deletion strains, growth OD, locus YLR221C, strain rsa3, active compounds read low
Among all 5,500 compounds or so, about 2,000 (36%) were called active. Inconclusive results (about 18%) are left out. This is one part of the list.
Response field label: string, one of true (normalized growth strictly below 1) or false.

Field: example entries. Status: answers known.
{"columns": ["compound", "cat"],
 "data": [
  ["CCOC(=O)c1c(C)cc(OC)cc1O", "true"],
  ["CC1(C)C(=O)C=C[C@@]2(C)C1CC(=O)[C@]1(C)C2CC[C@@]2(C)[C@H](c3ccoc3)OC(=O)[C@H]3O[C@]321 (stereo not given in full)", "false"],
  ["O=c1cc(-c2ccc(O)cc2)oc2cc(O[C@@H]3O[C@H](CO)[C@@H](O)[C@H](O)[C@H]3O)cc(O)c12", "false"]
]}

In plain terms, does COc1cccc2c(C)cc(=O)[nH]c12 come in under 1 for normalized growth?
true

In plain terms, does COc1c2ccoc2cc2oc(=O)ccc12 come in under 1 for normalized growth?
true

In plain terms, does CCOC(=O)c1c(C)cc(O)cc1O come in under 1 for normalized growth?
true

In plain terms, does COC(=O)[C@@]1(C)CCC[C@]2(C)c3ccc(O)c(C(C)C)c3CCC12 (stereo not given in full) come in under 1 for normalized growth?
true

In plain terms, does CCN(Cc1ccncc1)C(=O)C(CO)c1ccccc1 (stereo not given) come in under 1 for normalized growth?
false

In plain terms, does COc1cc(OC)c2ccc(=O)oc2c1 come in under 1 for normalized growth?
true

In plain terms, does C=C[C@H]1CN2CC[C@H]1C[C@@H]2[C@@H](OC(=O)OCC)c1ccnc2ccc(OC)cc12 come in under 1 for normalized growth?
false

In plain terms, does C[C@@H]1O[C@@H](OC[C@H]2OC(Oc3c(-c4ccc(O)c(O)c4)oc4cc(O)cc(O)c4c3=O)[C@H](O)[C@@H](O)[C@@H]2O)[C@H](O)[C@H](O)[C@H]1O (stereo not given in full) come in under 1 for normalized growth?
false
